Conditions: in isopropanol, 303.15 K
recorded.endpoint: solubility (mole fraction)
Reply: number alone, nothing else.

Give the value of solubility (mole fraction) reported for the following: COc1ccccc1N1CCN(CC(O)COc2cccc3ccccc23)CC1 (stereo unspecified)
0.00111

---

Conditions: in DMSO, 328.15 K
recorded.endpoint: solubility (mole fraction)
// keep it numeric: no unit symbol after the value

Hello, please tell me recorded solubility (mole fraction) for this one: COc1ccccc1N1CCN(CC(O)COc2cccc3ccccc23)CC1 (stereo unspecified)
0.066
